Source listed as patent US7338974B2.

- subjectOfTest: BACE1 enzyme (Homo sapiens, UniProt P56817)
- Construct: The HEK293-9B.A1 cell line, which overexpresses the BACE1 enzyme, was derived from HEK293 cells; endogenous in cells; washed membrane pellet / cell homogenate
- Sequence (P56817 46-501): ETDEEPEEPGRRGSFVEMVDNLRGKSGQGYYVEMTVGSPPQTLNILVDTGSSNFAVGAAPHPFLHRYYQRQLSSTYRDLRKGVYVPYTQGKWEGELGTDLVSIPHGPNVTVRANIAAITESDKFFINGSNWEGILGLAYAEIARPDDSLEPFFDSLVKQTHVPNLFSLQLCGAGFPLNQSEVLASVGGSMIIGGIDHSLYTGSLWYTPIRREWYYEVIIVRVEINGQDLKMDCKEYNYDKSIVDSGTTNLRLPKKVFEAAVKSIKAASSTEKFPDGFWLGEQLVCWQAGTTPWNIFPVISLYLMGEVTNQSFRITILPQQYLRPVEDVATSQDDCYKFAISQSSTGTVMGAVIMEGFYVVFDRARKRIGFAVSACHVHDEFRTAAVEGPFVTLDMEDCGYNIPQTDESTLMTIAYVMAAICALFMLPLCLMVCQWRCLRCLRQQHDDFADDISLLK
- assayProcedure: Radioligand displacement assay with a radiolabeled BACE inhibitor on HEK293-9B.A1 cell homogenate
- measurementContext: displacement of 1 nM tritiated radioligand, HEK293-9B.A1 homogenate, pH 5.0, 1.5 hr at 25° C.; read-out: Activity Rating (Activity based on IC50 values)
pIC50: −log10 of the molar value.
outcomeMeasure: pIC50

{"columns": ["compound", "outcomeMeasure", "result"],
 "data": [
  ["COc1ccc2c(c1)C1CC2OCCCCC(N2CCCC2=O)C(=O)N[C@@H](Cc2ccccc2)[C@H](O)CN1 (stereo partly drawn) [Example 2]", "pIC50", "< 6.00"],
  ["COc1ccc2c(c1)[C@@H]1C[C@H]2OCC=CC[C@H](N2CC[C@H](CC(C)C)C2=O)C(=O)N[C@@H](Cc2ccccc2)[C@H](O)CN1 [Example 7]", "pIC50", "> 8.00"],
  ["CCCC[C@H]1CCN([C@H]2CC=CCO[C@@H]3C[C@H](NC[C@@H](O)[C@H](Cc4cc(F)cc(F)c4)NC2=O)c2cc(OC)ccc23)C1=O [Example 4]", "pIC50", "> 8.00"]
]}
